Substrate: O=c1[nH]cc(CO)c(=O)[nH]1
Assay: purified protein
Settings: 1 mM α-KG, 0.2 mM (NH4)2Fe(SO4)2, 0.2 mM ascorbic acid, 100 mM Hepes pH 7.5, 25 °C
metric: kcat
Hey, just the number and the unit after it is fine.

NcT7H (thymine-7-hydroxylase) (Neurospora crassa OR74A) (protein, full length (residues 1-333), C-terminal His6-tag, pET-28a, expressed in E. coli BL21(DE3); Ni-NTA and gel filtration, tag removal not mentioned) MEKAAVNEDGLVIPLIDFSKFLEGDETLKLETAKAILHGFQTAGFIYLKNIPIQPDFREHVFNTSAKFFKLPKEKKLEVGWTTPEANRGYSAPGREKVTQLTDPAEIEKIRSAAPDIKESYEIGREDEPGHPNPWPAEQDDLVGFKSTMNNFFDQCKALHIEVMRAIAVGMGIDANYFDSFVDVGDNILRLLHYPAVKSEVFKINPGQVRAGEHTDYGSITLLFQDSRGGLQVKSPNGQFIDATPIENTVVVNAGDLLARWSNDTIKSTVHRVVEPPKQEDVHPPRYSIAYFCNPNHKSYIEAIPGTYAAESERKYEGINSGKYLVQRLAATY | 0.325 s⁻¹

Per the record, NcT7H (thymine-7-hydroxylase) (Neurospora crassa OR74A; R286A) (protein, full length (residues 1-333), C-terminal His6-tag, pET-28a, expressed in E. coli BL21(DE3); Ni-NTA and gel filtration, tag removal not mentioned) MEKAAVNEDGLVIPLIDFSKFLEGDETLKLETAKAILHGFQTAGFIYLKNIPIQPDFREHVFNTSAKFFKLPKEKKLEVGWTTPEANRGYSAPGREKVTQLTDPAEIEKIRSAAPDIKESYEIGREDEPGHPNPWPAEQDDLVGFKSTMNNFFDQCKALHIEVMRAIAVGMGIDANYFDSFVDVGDNILRLLHYPAVKSEVFKINPGQVRAGEHTDYGSITLLFQDSRGGLQVKSPNGQFIDATPIENTVVVNAGDLLARWSNDTIKSTVHRVVEPPKQEDVHPPAYSIAYFCNPNHKSYIEAIPGTYAAESERKYEGINSGKYLVQRLAATY has kcat of 0.141 s⁻¹

Item: NcT7H (thymine-7-hydroxylase) (Neurospora crassa OR74A; Y217F) (protein, full length (residues 1-333), C-terminal His6-tag, pET-28a, expressed in E. coli BL21(DE3); Ni-NTA and gel filtration, tag removal not mentioned) MEKAAVNEDGLVIPLIDFSKFLEGDETLKLETAKAILHGFQTAGFIYLKNIPIQPDFREHVFNTSAKFFKLPKEKKLEVGWTTPEANRGYSAPGREKVTQLTDPAEIEKIRSAAPDIKESYEIGREDEPGHPNPWPAEQDDLVGFKSTMNNFFDQCKALHIEVMRAIAVGMGIDANYFDSFVDVGDNILRLLHYPAVKSEVFKINPGQVRAGEHTDFGSITLLFQDSRGGLQVKSPNGQFIDATPIENTVVVNAGDLLARWSNDTIKSTVHRVVEPPKQEDVHPPRYSIAYFCNPNHKSYIEAIPGTYAAESERKYEGINSGKYLVQRLAATY | kcat: 0.553 s⁻¹

kcat for NcT7H (thymine-7-hydroxylase) (Neurospora crassa OR74A; N87A) (protein, full length (residues 1-333), C-terminal His6-tag, pET-28a, expressed in E. coli BL21(DE3); Ni-NTA and gel filtration, tag removal not mentioned) MEKAAVNEDGLVIPLIDFSKFLEGDETLKLETAKAILHGFQTAGFIYLKNIPIQPDFREHVFNTSAKFFKLPKEKKLEVGWTTPEAARGYSAPGREKVTQLTDPAEIEKIRSAAPDIKESYEIGREDEPGHPNPWPAEQDDLVGFKSTMNNFFDQCKALHIEVMRAIAVGMGIDANYFDSFVDVGDNILRLLHYPAVKSEVFKINPGQVRAGEHTDYGSITLLFQDSRGGLQVKSPNGQFIDATPIENTVVVNAGDLLARWSNDTIKSTVHRVVEPPKQEDVHPPRYSIAYFCNPNHKSYIEAIPGTYAAESERKYEGINSGKYLVQRLAATY is 0.0962 s⁻¹

Per the record, NcT7H (thymine-7-hydroxylase) (Neurospora crassa OR74A; R190K) (protein, full length (residues 1-333), C-terminal His6-tag, pET-28a, expressed in E. coli BL21(DE3); Ni-NTA and gel filtration, tag removal not mentioned) MEKAAVNEDGLVIPLIDFSKFLEGDETLKLETAKAILHGFQTAGFIYLKNIPIQPDFREHVFNTSAKFFKLPKEKKLEVGWTTPEANRGYSAPGREKVTQLTDPAEIEKIRSAAPDIKESYEIGREDEPGHPNPWPAEQDDLVGFKSTMNNFFDQCKALHIEVMRAIAVGMGIDANYFDSFVDVGDNILKLLHYPAVKSEVFKINPGQVRAGEHTDYGSITLLFQDSRGGLQVKSPNGQFIDATPIENTVVVNAGDLLARWSNDTIKSTVHRVVEPPKQEDVHPPRYSIAYFCNPNHKSYIEAIPGTYAAESERKYEGINSGKYLVQRLAATY has kcat of 0.0353 s⁻¹
